- System: OVCAR-8 ovarian
- METHOD DESCRIPTION: NCI tumour cell line growth inhibition, 48 h; in the data active = GI50 below about 0.43 µM; inactive = the rest
Possible outcomes: true = active, false = inactive

{"columns": ["COMPOUND", "LABEL VALUE"],
 "data": [
  ["Cc1c(Cl)cccc1C(=O)Nc1nc2c(s1)CN(C(=O)c1ccc(C(F)(F)F)cc1)CC2", "true"],
  ["COc1ccc(CCN2CC=Cn3c2nc2ccccc2c3=O)cc1", "true"],
  ["Cc1cccc(/C=N/NC(=S)N2CCCC2)n1", "false"],
  ["C#CC#CC#CC#CC#CC#CC#CC#CCC1OCC(COC(=O)O[C@@H](C(=O)O[C@H]2C[C@@]3(O)[C@@H](OC(=O)c4ccccc4)[C@@H]4[C@]5(OC(C)=O)CO[C@@H]5C[C@H](O)[C@@]4(C)C(=O)[C@H](OC(C)=O)C(=C2C)C3(C)C)[C@@H](NC(=O)c2ccccc2)c2ccccc2)O1 (stereo not given in full)", "true"],
  ["COc1ccc2c(c1)NC1=C(C(=O)OC1)C2c1cc(OC)c2c(c1)OCO2 (stereo not given)", "true"]
]}

###

Quick reference for TGI among some molecules
- System: HL-60(TB) leukemia
- METHOD DESCRIPTION: NCI tumour cell line growth inhibition, 48 h

{"columns": ["MOLECULE", "EXPERIMENTAL SYSTEM", "TGI"],
 "data": [
  ["Cc1c(C(=O)Nc2ccccc2)sc2ncn(Cc3cccc(Cl)c3)c(=O)c12", "HL-60(TB) leukemia", "> 100 µM"],
  ["CO/N=C1\\CC(NC(=O)CNC(=O)OC(C)(C)C)c2ccsc21 (stereo unspecified)", "HL-60(TB) leukemia", "> 100 µM"],
  ["Cc1cn(C2CC3C(COCN3O)O2)c(=O)[nH]c1=O (stereo unspecified)", "HL-60(TB) leukemia", "> 100 µM"],
  ["C=CCN=C(N/N=C/c1ccc([N+](=O)[O-])o1)NS(=O)(=O)c1cc(C(=O)Nc2ccc(Cl)cc2)c(Cl)cc1SC", "HL-60(TB) leukemia", "8.09 µM"],
  ["CC1(C)N/C(=C\\C=O)C(C)(C)N1O", "HL-60(TB) leukemia", "> 100 µM"],
  ["NNC(=O)C1CCC(=O)N1S(=O)(=O)c1ccccc1 (stereo unspecified)", "HL-60(TB) leukemia", "> 100 µM"],
  ["COc1cc([C@@H]2c3cc4c(cc3[C@@H](c3c(O)cc(O)c5c3O[C@H](c3ccc(O)c(O)c3)[C@@H](O)C5)[C@H]3COC(=O)[C@H]23)OCO4)cc(OC)c1OC", "HL-60(TB) leukemia", "> 100 µM"],
  ["CN(C(=O)C12C3C4C1C1C2C3C41C(N)=O)C(C)(C)C (stereo unspecified)", "HL-60(TB) leukemia", "> 100 µM"],
  ["Cc1ccc(/C(O)=C/c2nc3ccccc3sc2=O)c(C)c1", "HL-60(TB) leukemia", "69.6 µM"],
  ["COc1cc2ccc(=O)oc2cc1O", "HL-60(TB) leukemia", "271 µM"],
  ["N#CC1(C#N)NC(c2cccs2)C(C#N)(C#N)NC1c1cccs1 (stereo unspecified)", "HL-60(TB) leukemia", "41.3 µM"],
  ["OCCO/N=C1\\C(c2c(O)[nH]c3ccccc23)=Nc2ccccc21", "HL-60(TB) leukemia", "> 100 µM"],
  ["NCCCN(CCCN(C(=O)Nc1ccccc1)c1ccccc1)C(=O)Nc1ccccc1", "HL-60(TB) leukemia", "66.1 µM"],
  ["CC(C)CNc1nc2ncnc(N)c2[nH]1", "HL-60(TB) leukemia", "> 100 µM"],
  ["CC1(C)CC(O)C(C)(C)[C@@H](O)C1 (stereo partly specified)", "HL-60(TB) leukemia", "> 100 µM"],
  ["CCCCCCCC/C=C\\CCCCCCC/C=C1\\C[C@](/C=C/C(=O)OC)(CO)OC1=O", "HL-60(TB) leukemia", "6.14 µM"],
  ["CC(=O)Nc1ccc(S(=O)(=O)N/N=C/CN2C(=O)c3ccccc3C2=O)cc1", "HL-60(TB) leukemia", "> 100 µM"],
  ["O=C1C[C@@H](C(=O)OCc2ccccc2)NC(=O)C[C@@H](C(=O)OCc2ccccc2)NC(=O)C[C@@H](C(=O)OCc2ccccc2)N1", "HL-60(TB) leukemia", "9.88 µM"],
  ["CC1CCCC2(CC[N+](C)(CCC[N+](C)(C)C)CC2)C1 (stereo unspecified)", "HL-60(TB) leukemia", "43.9 µM"],
  ["COc1cc(OC)c2nc(C)c3c(c2c1)SCC3", "HL-60(TB) leukemia", "> 100 µM"],
  ["CCC1(c2ccccc2)Sc2ccccc2-n2cccc2C1=O (stereo unspecified)", "HL-60(TB) leukemia", "> 10 µM"]
]}

###

Quick reference for TGI among some molecules
- Test system: SNB-75 CNS
- METHOD DESCRIPTION: NCI tumour cell line growth inhibition, 48 h

{"columns": ["MOLECULE", "EXPERIMENTAL SYSTEM", "TGI"],
 "data": [
  ["O=c1cc(N2CCCC2)[nH]c(=O)n1Cc1ccccc1", "SNB-75 CNS", "> 100 µM"],
  ["O=C(Nc1cccc(-n2cc(-c3ccncc3)c(-c3ccc(Cl)c(O)c3)n2)c1)Nc1cc(C(F)(F)F)cc(C(F)(F)F)c1", "SNB-75 CNS", "2.3 µM"],
  ["O=S(=O)(c1ccc(NC2=NC(c3ccc(O)cc3)(c3ccccc3O)c3ccccc32)cc1)c1ccc(NC2=NC(c3ccc(O)cc3)(c3ccccc3O)c3ccccc32)cc1 (stereo not given)", "SNB-75 CNS", "> 27.5 µM"],
  ["O=c1cnn(C2OC(CO)C(O)C2O)c(=S)[nH]1 (stereo not given)", "SNB-75 CNS", "> 100 µM"],
  ["NC(=O)c1cccc([N+](=O)[O-])c1", "SNB-75 CNS", "> 100 µM"],
  ["CC(=O)[CH-]C(=O)c1ccccc1.CC(=O)[CH-]C(=O)c1ccccc1.CC[O-].CC[O-].[Hf+4]", "SNB-75 CNS", "> 100 µM"],
  ["NC(=O)CN(CC(N)=O)C(N)=O", "SNB-75 CNS", "> 100 µM"],
  ["O=[N+]([O-])c1ccc2sc(C=Nc3cnccn3)cc2c1", "SNB-75 CNS", "63.5 µM"],
  ["COc1cc(OC)c(C/C=C/c2ccccc2)cc1O", "SNB-75 CNS", "33.9 µM"],
  ["COc1ccc(C/C(C)=C(/c2ccc(OCCN3CCCCC3)cc2)c2ccc(OC(=O)NCc3ccccc3)cc2)cc1", "SNB-75 CNS", "0.716 µM"]
]}

###

- Test system: EKVX NSCLC
- METHOD DESCRIPTION: NCI tumour cell line growth inhibition, 48 h
# if value of TGI reaches 40 µM, tag satisfied; if it stays below, tag not satisfied

{"columns": ["COMPOUND", "LABEL VALUE"],
 "data": [
  ["CC(=O)NCCC1CN(C(=O)/C=C/I)c2ccccc21 (stereo unspecified)", "not satisfied"],
  ["CC(CN(C)C)/C(=N\\Nc1ccccc1)c1ccccc1 (stereo unspecified)", "not satisfied"],
  ["C=C1CC2OC(=O)C(=C)C2C(O)C2C(=C)CCC12 (stereo unspecified)", "not satisfied"],
  ["CC(=O)Oc1cc2c(cc1OC(C)=O)OCC(c1ccc(C)cc1)C2 (stereo unspecified)", "satisfied"],
  ["C[C@@H]1[C@H](C)N1CC(O)Cn1ccnc1[N+](=O)[O-] (stereo partly specified)", "satisfied"],
  ["Cc1nc(Nc2ccccc2)sc1C(=O)CC(=O)C(=O)Nc1c(C(C)C)cccc1C(C)C", "satisfied"],
  ["CC(C)CNc1nc2ncnc(N)c2[nH]1", "satisfied"],
  ["CCCCCCCC/C=C\\CCCCCCC/C=C1\\C[C@](/C=C/C(=O)OC)(CO)OC1=O", "not satisfied"],
  ["CN(C)C(=O)OC1C(=O)N(C)c2ccc(Cl)cc2C2(c3ccccc3)N1C2(Cl)Cl (stereo unspecified)", "satisfied"]
]}

###

Quick reference for TGI among some compounds
- System: COLO 205 colon
- METHOD DESCRIPTION: NCI tumour cell line growth inhibition, 48 h

{"columns": ["COMPOUND", "TGI"],
 "data": [
  ["Cc1ccccc1C1OC(=O)c2ccc3ccccc3c21 (centres undefined)", "2.28 µM"],
  ["O=[N+]([O-])c1ccc(-n2nnc(C3=NCCN3)c2-c2ccccc2)cc1", "> 100 µM"],
  ["CCOC(=O)CC[C@H](NC(=O)c1nc[nH]c1[N+](=O)[O-])C(=O)OCC", "> 100 µM"],
  ["Cc1cc(NC(=O)NC(=O)c2ccccc2NC(=O)C(C)N)ccc1Oc1ncc(Br)cn1 (centres undefined)", "0.852 µM"],
  ["Cc1cc(S(=O)(=O)N/C(=C(\\C#N)C(=O)c2ccc(Cl)cc2)[n+]2ccc(N(C)C)cc2)c([S-])cc1Cl", "> 100 µM"],
  ["CCCCC(=O)c1c(O)nc2sccn2c1=O", "> 10 µM"],
  ["COc1ccc2c(c1)NC1=C(C(=O)OC1)C2c1cc(OC)c2c(c1)OCO2 (centres undefined)", "0.0305 µM"],
  ["COC(=O)C1CCC(=S)N1C(=O)c1ccccc1 (centres undefined)", "> 100 µM"],
  ["NC(=O)N/N=C1/CCC(O)CC1CC(=O)O (centres undefined)", "> 100 µM"],
  ["CC(C)CCCC(C)[C@H]1CCC2[C@@H]3CCC4Cc5nc6c(nc5C[C@]4(C)C3CC[C@@]21C)CC1CC[C@@H]2C(CC[C@@]3(C)C2CC[C@@H]3C(C)CCCC(C)C)[C@@]1(C)C6 (some centres undefined)", "> 100 µM"],
  ["CCOc1cc2c(C(=O)CC)c(O)ccc2o1", "> 100 µM"],
  ["OC1(C23CC4CC(CC(C4)C2)C3)CSCC1(O)C12CC3CC(CC(C3)C1)C2 (centres undefined)", "> 100 µM"],
  ["CCCCOC(=O)C(NC(C(=O)OCCCC)c1cc(C(C)(C)C)c(O)c(C(C)(C)C)c1)c1cc(C(C)(C)C)c(O)c(C(C)(C)C)c1 (centres undefined)", "> 100 µM"],
  ["COc1ccc(N2C(=O)CC(=O)N(C(=O)COc3ccc(OCC(=O)N4C(=O)CC(=O)N(c5ccc(OC)cc5)C4=S)cc3)C2=S)cc1", "39.8 µM"],
  ["CC(C)=NN/C(=N\\S(=O)(=O)c1ccc(Oc2cccc(Cl)c2C#N)cc1)Nc1ccc(Cl)cc1", "> 100 µM"],
  ["CN(C(=O)C12C3C4C1C1C2C3C41C(N)=O)C(C)(C)C (centres undefined)", "> 100 µM"],
  ["CCCC(=O)NC(Nc1ccc(S(=O)(=O)Nc2cc(C)on2)cc1)(C(=O)OCC)C(F)(F)F (centres undefined)", "> 100 µM"],
  ["CSC1=C(N)C(=O)c2[nH]cc(CO)c2C1=N", "0.222 µM"],
  ["N/N=C(/C(=O)Nc1cccc(Cl)c1)C(C(=O)c1ccc(O)cc1O)C1OC(=O)c2ccccc21 (centres undefined)", "> 100 µM"]
]}

These entries and their values trace back to PubChem BioAssay (NCI).
